TARGET_SYSTEM: UniProt:P23977
Format: binding
STUDY_CONDITIONS: read-out: DA IC50 for inhibition of radioligand binding; DA=[3H]WIN 35,428
Structures can show the parent of a compound that is named as a salt.
Kindly apply the following: Condition met if IC50 is less than 3 nM, Condition not met in every other case.

- MOLECULE: "COC(=O)C1C(c2ccc(C)c(I)c2)CC2CCC1N2C (stereo not drawn) [RTI-4229-280]"
  CLASS_NAME: "Condition not met"
- MOLECULE: "Cc1ccc(C2CC3CCC(C2C(=O)Oc2cccc(C)c2)N3C)cc1 (stereo not drawn) [RTI-4229-205]"
  CLASS_NAME: "Condition not met"
- MOLECULE: "Cc1ccc(C2CC3CCC(C2CN(C)C)N3C)cc1 (stereo not drawn) [RTI-4229-132]"
  CLASS_NAME: "Condition not met"
- MOLECULE: "Cc1ccc([C@H]2C[C@@H]3CC[C@H]([C@H]2c2cc(-c4ccccc4)no2)N3C)cc1 [RTI-4229-176, Hydrochloride]"
  CLASS_NAME: "Condition met"
- MOLECULE: "Cc1ccc(C2CC3CCC(C2c2cc(C)no2)N3C)cc1.Cl (stereo not drawn) [RTI-4229-171, Hydrochloride]"
  CLASS_NAME: "Condition met"
- MOLECULE: "CN1[C@H]2CC[C@@H]1[C@@H](c1cc(-c3ccccc3)no1)[C@@H](c1ccc(Cl)cc1)C2 [RTI-4229-177, Hydrochloride]"
  CLASS_NAME: "Condition met"
- MOLECULE: "COC(=O)CCN1C2CCC1C(C(=O)OC)C(c1ccc(Cl)cc1)C2 (stereo not drawn) [RTI-4229-252]"
  CLASS_NAME: "Condition met"
- MOLECULE: "COC(=O)C1C2CCC(CC1c1ccc(C)cc1)N2 (stereo not drawn) [RTI-4229-305]"
  CLASS_NAME: "Condition met"
- MOLECULE: "C/C=C\\c1ccc(C2C[C@H]3CCC(C2C(=O)OC)N3C)cc1 (stereo partly drawn) [RTI-4229-304]"
  CLASS_NAME: "Condition not met"
- MOLECULE: "CC1C(c2ccc(Cl)cc2)CC2CCC1N2C (stereo not drawn) [RTI-4229-139]"
  CLASS_NAME: "Condition met"
- MOLECULE: "CN1C2CCC1C(c1nnc(-c3ccccc3)s1)C(c1ccc(Cl)cc1)C2 (stereo not drawn) [RTI-4229-200, Hydrochloride]"
  CLASS_NAME: "Condition not met"
- MOLECULE: "CN1C2CCC1C(c1nc(-c3ccc(Cl)cc3)no1)C(c1ccc(Cl)cc1)C2 (stereo not drawn) [RTI-4229-143]"
  CLASS_NAME: "Condition not met"
- MOLECULE: "Cc1ccc(C2CC3CCC(C2c2ccccc2)N3C)cc1 (stereo not drawn) [RTI-4229-422]"
  CLASS_NAME: "Condition met"
- MOLECULE: "CN1C2CCC1C(C(=O)OC1CC1)C(c1ccc(I)cc1)C2 (stereo not drawn) [RTI-4229-191]"
  CLASS_NAME: "Condition met"
- MOLECULE: "CCc1cc([C@@H]2C3CCC(C[C@@H]2c2ccc(Cl)cc2)N3C)on1 (stereo partly drawn) [RTI-4229-334]"
  CLASS_NAME: "Condition met"
- MOLECULE: "COC(=O)[C@@H]1C2CCC(C[C@@H]1c1ccc(Cl)c(Cl)c1)N2C (stereo partly drawn) [RTI-4229-111]"
  CLASS_NAME: "Condition met"
- MOLECULE: "COC(=O)C1C(c2ccc3ccccc3c2)CC2CCC1N2C (stereo not drawn) [RTI-4229-319]"
  CLASS_NAME: "Condition met"
- MOLECULE: "CN1C2CCC1[C@@H](c1cc(-c3ccc(F)cc3)no1)[C@@H](c1ccc(Cl)cc1)C2 (stereo partly drawn) [RTI-4229-347]"
  CLASS_NAME: "Condition met"
